Target: T1, human GM-CSFRα, full length on cells (human, UniProt P15509 23-400)
T1 sequence: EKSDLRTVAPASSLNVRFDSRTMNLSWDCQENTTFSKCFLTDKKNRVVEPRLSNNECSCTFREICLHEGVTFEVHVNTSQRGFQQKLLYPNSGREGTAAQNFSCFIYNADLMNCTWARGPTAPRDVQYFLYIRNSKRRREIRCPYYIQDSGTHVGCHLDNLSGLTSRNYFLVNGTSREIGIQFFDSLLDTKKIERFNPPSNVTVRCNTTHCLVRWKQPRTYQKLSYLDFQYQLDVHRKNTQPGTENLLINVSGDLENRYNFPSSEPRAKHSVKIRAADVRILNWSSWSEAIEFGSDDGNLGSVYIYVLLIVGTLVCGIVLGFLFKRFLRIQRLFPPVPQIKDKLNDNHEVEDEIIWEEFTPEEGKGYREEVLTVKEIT
Experiment: cell-based or functional assay
endpointName: IC50, TF-1 cell proliferation (µg/mL)
Numbers only; they are read as µg/mL.

Worked cases, IC50, TF-1 cell proliferation given:
[[record]]
binder = "E35-scFv HT30A (scFv, V domains shown) VH: QMQLVQSGAEVKKPGASVKVSCKVSGYTLAELSIHWVRQAPGKGLEWMGGFDPEDGETIYAQKFQGRVTMTGDTSTDTAYLELSSLRSEDTALYYCATGRYTSLATTYGFDYWGQGTLVTVSS VL: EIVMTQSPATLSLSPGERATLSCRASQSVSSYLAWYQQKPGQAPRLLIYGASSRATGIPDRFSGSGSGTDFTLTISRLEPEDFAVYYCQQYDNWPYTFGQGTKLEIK"
endpointname = "IC50, TF-1 cell proliferation"
testresult = 0.215

[[record]]
binder = "E35-scFv LD92R (scFv, V domains shown) VH: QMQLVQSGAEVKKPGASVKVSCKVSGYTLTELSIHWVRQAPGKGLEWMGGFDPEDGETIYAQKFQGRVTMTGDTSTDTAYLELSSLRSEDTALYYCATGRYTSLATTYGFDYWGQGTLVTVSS VL: EIVMTQSPATLSLSPGERATLSCRASQSVSSYLAWYQQKPGQAPRLLIYGASSRATGIPDRFSGSGSGTDFTLTISRLEPEDFAVYYCQQYRNWPYTFGQGTKLEIK"
endpointname = "IC50, TF-1 cell proliferation"
testresult = 0.495


Then this binder:
IC50, TF-1 cell proliferation for E35-scFv LS31L (scFv, V domains shown) VH: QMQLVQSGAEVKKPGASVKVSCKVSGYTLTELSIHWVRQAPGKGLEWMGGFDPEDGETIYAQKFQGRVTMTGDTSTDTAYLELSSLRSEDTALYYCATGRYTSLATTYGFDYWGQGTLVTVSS VL: EIVMTQSPATLSLSPGERATLSCRASQSVSLYLAWYQQKPGQAPRLLIYGASSRATGIPDRFSGSGSGTDFTLTISRLEPEDFAVYYCQQYDNWPYTFGQGTKLEIK is 0.235
